Exercise: state measured Ratio for each of the molecules provided.
- experimental-protocol: Inhibition of OXA-48 expressed in Escherichia coli BL21 DE3 assessed as K2/Ki ratio using CENTA as substrate by spectrophotometry

Kindly note the recorded Ratio for CC(C)(C)OC(=O)N1CCC(c2cn(C[C@@H]3CC[C@@H]4CN3C(=O)N4OS(=O)(=O)[O-])nn2)CC1.[Na+] , which is 210 M⁻¹ s⁻¹

Query CC(C)(C)OC(=O)NCc1cn(C[C@@H]2CC[C@@H]3CN2C(=O)N3OS(=O)(=O)[O-])nn1.[Na+] yields Ratio of 210 M⁻¹ s⁻¹

According to the records, this molecule O=C1N2C[C@@H](CC[C@H]2Cn2cc(-c3ccccc3)nn2)N1OS(=O)(=O)[O-].[Na+] displays Ratio of 110 M⁻¹ s⁻¹

---

I'd appreciate it if you could supply MIC values for the items below.
- System: Escherichia coli
- experimental-protocol: Antibacterial activity against Escherichia coli Top10 without harboring KPC-2 assessed as aztreonam MIC by CLSI protocol based method (reference value: 0.5 ug/ml)
- Assay type: functional
Could you write the number and then its unit?

MIC of NCc1cn(C[C@@H]2CC[C@@H]3CN2C(=O)N3OS(=O)(=O)O)nn1.O=C(O)C(F)(F)F , assay on Escherichia coli, is 0.25 µg/mL

Reported MIC (Escherichia coli) for entry O=C1N2C[C@@H](CC[C@H]2Cn2ccnn2)N1OS(=O)(=O)[O-].[Na+] is 0.25 µg/mL

Assay Escherichia coli, sample CN(C)Cc1cn(C[C@@H]2CC[C@@H]3CN2C(=O)N3OS(=O)(=O)[O-])nn1.[Na+] , MIC read: 0.5 µg/mL

Summary line: O=C1N2C[C@@H](CC[C@H]2Cn2cc(CN3CCOCC3)nn2)N1OS(=O)(=O)[O-].[Na+] , Escherichia coli, reported MIC = 0.25 µg/mL

Known value: Escherichia coli MIC of the compound NCCC(=O)Nc1ccc(-c2cn(C[C@@H]3CC[C@@H]4CN3C(=O)N4OS(=O)(=O)O)nn2)cc1.O=C(O)C(F)(F)F equals 0.25 µg/mL

MIC for Escherichia coli with input O=C(NC1CCNCC1)[C@@H]1CC[C@@H]2CN1C(=O)N2OS(=O)(=O)[O-].[Na+] equals 0.25 µg/mL

Result for O=C(O)CCc1cn(C[C@@H]2CC[C@@H]3CN2C(=O)N3OS(=O)(=O)[O-])nn1.[Na+] , tested on Escherichia coli, MIC: 0.25 µg/mL

Let me check: COCc1cn(C[C@@H]2CC[C@@H]3CN2C(=O)N3OS(=O)(=O)[O-])nn1.[Na+] , system Escherichia coli, measured MIC is 0.5 µg/mL

---

- System: Escherichia coli
- experimental-protocol: Antibacterial activity against Escherichia coli Top10 harboring AmpC assessed as cefotaxime MIC by CLSI protocol based method (reference value: 256 ug/ml)
- Format: functional
measurement-type: MIC
Record the result as a number with its unit.

Reported MIC ( O=C1N2C[C@@H](CC[C@H]2Cn2ccnn2)N1OS(=O)(=O)[O-].[Na+] ) = 16 µg/mL

MIC reported for this compound O=C1N2C[C@@H](CC[C@H]2Cn2cc(CN3CCOCC3)nn2)N1OS(=O)(=O)[O-].[Na+] : 128 µg/mL

Given item O=C([O-])[C@H]1/C(=C/CO)O[C@@H]2CC(=O)N21.[Na+] [CLAVULANIC ACID (SODIUM)] , the value recorded as its MIC is 128 µg/mL

Lab note: CN(C)Cc1cn(C[C@@H]2CC[C@@H]3CN2C(=O)N3OS(=O)(=O)[O-])nn1.[Na+] gave MIC of 64 µg/mL

So, NCc1cn(C[C@@H]2CC[C@@H]3CN2C(=O)N3OS(=O)(=O)O)nn1.O=C(O)C(F)(F)F ? Its MIC was 128 µg/mL

// MIC value for CC(C)(C)OC(=O)NCCC(=O)Nc1ccc(-c2cn(C[C@@H]3CC[C@@H]4CN3C(=O)N4OS(=O)(=O)[O-])nn2)cc1.[Na+] : 128 µg/mL

MIC in this record for NCCC(=O)Nc1ccc(-c2cn(C[C@@H]3CC[C@@H]4CN3C(=O)N4OS(=O)(=O)O)nn2)cc1.O=C(O)C(F)(F)F : 64 µg/mL

Entry under test: O=C(O)C(F)(F)F.O=C1N2C[C@@H](CC[C@H]2Cn2cc(C3CCNCC3)nn2)N1OS(=O)(=O)O . Its MIC was 128 µg/mL

---

Assignment: determine reported log10(Ratio) for the given compounds.
- Tested on: Enterobacter cloacae
- experimental-protocol: Inhibition of Enterobacter cloacae CTX-M-15 expressed in Escherichia coli BL21 DE3 assessed as K2/Ki ratio using nitrocefin as substrate by spectrophotometry
Hey, these are logged values: log10 of Ratio, M⁻¹ s⁻¹ being the unit before logging.

The measured log10(Ratio) that O=C(O)C(F)(F)F.O=C1N2C[C@@H](CC[C@H]2Cn2cc(C3CCNCC3)nn2)N1OS(=O)(=O)O showed for Enterobacter cloacae is 2.54

Enterobacter cloacae data for CC(C)(C)OC(=O)NCCC(=O)Nc1ccc(-c2cn(C[C@@H]3CC[C@@H]4CN3C(=O)N4OS(=O)(=O)[O-])nn2)cc1.[Na+] ; its log10(Ratio): 3.38

# log10(Ratio) measured on Enterobacter cloacae for item O=C1N2C[C@@H](CC[C@H]2Cn2cc(-c3cccnc3)nn2)N1OS(=O)(=O)[O-].[Na+] = 3.23

Hey, Enterobacter cloacae data for O=C1N2C[C@@H](CC[C@H]2Cn2nccn2)N1OS(=O)(=O)[O-].[Na+] : log10(Ratio) came out at 2.08

// returns log10(Ratio) for CC(C)(C)OC(=O)NCc1cn(C[C@@H]2CC[C@@H]3CN2C(=O)N3OS(=O)(=O)[O-])nn1.[Na+] with Enterobacter cloacae; value = 2.11

Measured log10(Ratio) for this entry NC(=O)[C@@H]1CC[C@@H]2CN1C(=O)N2OS(=O)(=O)[O-].[Na+] [AVIBACTAM SODIUM] on Enterobacter cloacae: 5.11

Measured log10(Ratio) (Enterobacter cloacae), entry CN(C)Cc1cn(C[C@@H]2CC[C@@H]3CN2C(=O)N3OS(=O)(=O)[O-])nn1.[Na+] : 1.46

---

- experimental-protocol: Inhibition of KPC-2 (unknown origin) expressed in Escherichia coli BL21 DE3 assessed as K2/Ki ratio using nitrocefin as substrate by spectrophotometry
Response field label takes yes (1) when Ratio is strictly below 200 M⁻¹ s⁻¹ and no (0) in all other cases.

IN: Is 200 M⁻¹ s⁻¹ strictly greater than the molecule's reported Ratio? molecule: O=C1N2C[C@@H](CC[C@H]2Cn2nccn2)N1OS(=O)(=O)[O-].[Na+]
OUT: no (0)

IN: is_below(Ratio, 200 M⁻¹ s⁻¹) for O=C(O)CCc1cn(C[C@@H]2CC[C@@H]3CN2C(=O)N3OS(=O)(=O)[O-])nn1.[Na+] ?
OUT: yes (1)

IN: Determine if NCc1cn(C[C@@H]2CC[C@@H]3CN2C(=O)N3OS(=O)(=O)O)nn1.O=C(O)C(F)(F)F shows Ratio strictly lower than 200 M⁻¹ s⁻¹.
OUT: yes (1)

IN: Does the reported Ratio of the following molecule sit strictly below 200 M⁻¹ s⁻¹? O=C1N2C[C@@H](CC[C@H]2Cn2cc(-c3ccccc3)nn2)N1OS(=O)(=O)[O-].[Na+]
OUT: no (0)

IN: Could you please tell me whether Ratio recorded for O=C(O)C(F)(F)F.O=C1N2C[C@@H](CC[C@H]2Cn2cc(C3CCNCC3)nn2)N1OS(=O)(=O)O is less than 200 M⁻¹ s⁻¹?
OUT: no (0)

IN: Please check: Ratio for O=C1N2C[C@@H](CC[C@H]2Cn2cc(CN3CCOCC3)nn2)N1OS(=O)(=O)[O-].[Na+] , strictly under 200 M⁻¹ s⁻¹ or not?
OUT: yes (1)

IN: Please indicate whether the reported Ratio of CC(C)(C)OC(=O)NCc1cn(C[C@@H]2CC[C@@H]3CN2C(=O)N3OS(=O)(=O)[O-])nn1.[Na+] is strictly below 200 M⁻¹ s⁻¹.
OUT: no (0)

IN: Hi there! Is Ratio for CC(C)(C)OC(=O)N1CCC(c2cn(C[C@@H]3CC[C@@H]4CN3C(=O)N4OS(=O)(=O)[O-])nn2)CC1.[Na+] below 200 M⁻¹ s⁻¹, do you know?
OUT: no (0)

IN: Find out if reported Ratio for C[Si](C)(C)c1cn(C[C@@H]2CC[C@@H]3CN2C(=O)N3OS(=O)(=O)[O-])nn1.[Na+] is less than 200 M⁻¹ s⁻¹
OUT: yes (1)

---

- Test system: Escherichia coli
- experimental-protocol: Antibacterial activity against Escherichia coli Top10 without harboring AmpC assessed as cefotaxime MIC by CLSI protocol based method (reference value: 0.125 ug/ml)
- Assay type: functional
measurement-type: MIC
// return the numeric value with its unit appended

compound CC(C)(C)OC(=O)N1CCC(c2cn(C[C@@H]3CC[C@@H]4CN3C(=O)N4OS(=O)(=O)[O-])nn2)CC1.[Na+] , MIC observed: 0.125 µg/mL

Query COCc1cn(C[C@@H]2CC[C@@H]3CN2C(=O)N3OS(=O)(=O)[O-])nn1.[Na+] yields MIC of 0.125 µg/mL

Kindly note the recorded MIC for O=C(O)C(F)(F)F.O=C1N2C[C@@H](CC[C@H]2Cn2cc(C3CCNCC3)nn2)N1OS(=O)(=O)O , which is 0.125 µg/mL

The value of MIC measured for the compound NC(=O)[C@@H]1CC[C@@H]2CN1C(=O)N2OS(=O)(=O)[O-].[Na+] [AVIBACTAM SODIUM] turned out to be 0.125 µg/mL

// MIC lookup, compound = O=C(O)CCc1cn(C[C@@H]2CC[C@@H]3CN2C(=O)N3OS(=O)(=O)[O-])nn1.[Na+] , result: 0.25 µg/mL

Reported MIC ( O=C1N2C[C@@H](CC[C@H]2Cn2cc(-c3ccccc3)nn2)N1OS(=O)(=O)[O-].[Na+] ) = 0.25 µg/mL

Sure, the documented MIC for O=C([O-])[C@H]1/C(=C/CO)O[C@@H]2CC(=O)N21.[Na+] [CLAVULANIC ACID (SODIUM)] is 0.0625 µg/mL

Reference source for all entries: ChEMBL document CHEMBL4342503
